# TARGET_DESC: Ubiquitin-conjugating enzyme E2 N (Homo sapiens)
# PROCEDURE_TEXT: UBE2N binders by NMR, biophysical, purified protein (AID 1552)
# CONDITION_CONTEXT: NMR binding to purified UBE2N
Activity calls are given as the source filed them. No rule for the calls is given here.
MEASURED_PARAMETER: Kd

Task: Requested read-out: Kd. Entry: "CC(C)Nc1ncnc2c1nnn2C"
Result: > 4 mM (inactive)

Task: Recorded Kd of "O=C(Nc1ccccc1)Nc1ccccc1" , please.
Result: > 4 mM (inactive)

Task: Looking for the measured Kd of Cc1ccc(N2C(=O)CC(Sc3ncn[nH]3)C2=O)cc1 (centres undefined) , can you help?
Result: > 4 mM (inactive)

Task: Query (compound): "COc1ccccc1NC(C)=O" ; field requested: Kd
Result: > 4 mM (inactive)

Task: Param item = "O=C1CN2C(=N1)N(Cc1ccccc1)c1ccccc12" ; retrieve measured Kd.
Result: > 4 mM (inactive)

Task: Can you share its Kd? I mean this compound: "O=C(CSc1ccccc1)N1CCC2(CC1)OCCO2"
Result: > 4 mM (inactive)
